EXPERIMENT: qHTS drug screen for cell cycle checkpoint inhibitors in PARPi-resistant BRCA-mutant ovarian cancer cell lines. (AID 1963452)
RECORDED_CONDITIONS: PEO1/OlaR viability, CellTiter-Glo luminescence, 96 h; measured here: PEO4 Z-AUC; stronger effect = lower value
# Z-AUC listing for each entry below
Could you respond with only the numeric value?

COMPOUND: O=C1CCc2ccc(OCCCCN3CCN(c4cccc(Cl)c4Cl)CC3)cc2N1
MEASURED: -1.21

COMPOUND: Clc1ccc2c(N3CCN(CCCN4CCN(c5ccnc6cc(Cl)ccc56)CC4)CC3)ccnc2c1
MEASURED: 0.795

COMPOUND: COc1cc2c(cc1OC)C1CC(=O)C(CC(C)C)CN1CC2 (stereo unspecified)
MEASURED: 0.889

COMPOUND: Cc1ccc(C)c(OCCCC(C)(C)C(=O)O)c1
MEASURED: 1.5

COMPOUND: COc1cc(Nc2c(C#N)cnc3cc(OCCCN4CCN(C)CC4)c(OC)cc23)c(Cl)cc1Cl
MEASURED: 0.9

QUERY: Could you tell me which Z-AUC is on file for CN(C)c1ccc(O)c2c1C[C@H]1C[C@H]3[C@H](N(C)C)C(=O)C(C(N)=O)=C(O)[C@@]3(O)C(=O)C1=C2O ?
RESULT: 0.369

QUERY: Any idea what its Z-AUC is? The compound is NCCCCNCCCN
RESULT: 0.641

QUERY: # input compound: CCCCc1ccc2nc(NC(=O)OC)[nH]c2c1 ; wanted: its Z-AUC
RESULT: -1.66

QUERY: Which Z-AUC is reported for this compound? O=C1NC(=O)C(c2ccccc2[N+](=O)[O-])=C1Nc1ccc(O)c(Cl)c1
RESULT: 0.349

QUERY: For the compound CCc1nc(N)nc(N)c1-c1ccc(Cl)cc1 , what Z-AUC is on record?
RESULT: -0.843

QUERY: Entry CS(=O)(=O)OCCCCOS(C)(=O)=O has what Z-AUC?
RESULT: 1.46

QUERY: // Z-AUC lookup, key: CCOc1cc(CC(=O)N[C@@H](CC(C)C)c2ccccc2N2CCCCC2)ccc1C(=O)O
RESULT: 0.628

----------
Test system: ECU
EXPERIMENT: qHTS profiling for inhibitors of Plasmodium falciparum proliferation (AID 504749); further: nearly all actives have a fitted effect of over 60% in size
RECORDED_CONDITIONS: P. falciparum in erythrocytes, SYBR Green DNA, 72 h; series mostly up to 28.7 µM
Records with an inconclusive call do not appear. The source made the active and inactive calls. The call rests on the fitted dose curve; in most records, active means well fitted inhibition curve with a large enough effect; inconclusive means small, poorly fitted or top-dose-only effect; inactive means flat fitted curve, though single readings scatter.
Please reply with one of these outcomes: 1 (active), -1 (inactive)

Here's what some known entries look like.
COMPOUND: Cc1cc2cc3c(C)cc(=O)oc3c(C)c2o1
ANSWER_LABEL: -1
//
COMPOUND: COC1=C(OC)C(=O)C(CCCCCCCCCCO)=C(C)C1=O
ANSWER_LABEL: -1
//
COMPOUND: O=C(O)c1cccc(-c2noc(-c3ccccc3F)n2)c1
ANSWER_LABEL: -1
//
COMPOUND: COC(=O)C1=C(C)NC(C)=C(C(=O)OCCCN2CCC(c3ccccc3)(c3ccccc3)CC2)C1c1cccc([N+](=O)[O-])c1 (stereo unspecified)
ANSWER_LABEL: 1
//
COMPOUND: O=C(CS(=O)Cc1ccco1)NCC=CCOc1cc(CN2CCCCC2)ccn1 (stereo unspecified)
ANSWER_LABEL: -1

Shifting focus to the compound that follows.
QUERY: Lab log entry: Cc1nc2n(c(=O)c1CCN1CCC(c3noc4cc(F)ccc34)CC1)CCCC2 — outcome as called in the assay?
RESULT: -1

----------
Test system: KB-3-1
EXPERIMENT: Cytotoxic Profiling of Annotated Libraries Using Quantitative High-Throughput Screening (AID 1296008); further: nearly all actives have a fitted effect of over 60% in size
RECORDED_CONDITIONS: Five cell lines viability, CellTiter-Glo ATP luminescence, 48-72 h
Results filed as inconclusive are left out. The source made the active and inactive calls. The call rests on the fitted dose curve; in most records, active means well fitted inhibition curve with a large enough effect; inconclusive means small, poorly fitted or top-dose-only effect; inactive means flat fitted curve, though single readings scatter.
The reply should name one outcome from active, inactive

A selection of reference data follows.
MOLECULE: O=C1NC(=O)C(c2ccccc2[N+](=O)[O-])=C1Nc1ccc(O)c(Cl)c1
ANSWER_LABEL: inactive
--
MOLECULE: CC1=C(C(=O)O)N2C(=O)[C@@H](NC(=O)[C@H](N)C3=CCC=CC3)[C@H]2SC1
ANSWER_LABEL: inactive
--
MOLECULE: Cc1nccn1CC1CCc2c(c3ccccc3n2C)C1=O (stereo unspecified)
ANSWER_LABEL: inactive
--
MOLECULE: Nc1ncn([C@H]2C[C@H](O)[C@@H](CO)O2)c(=O)n1
ANSWER_LABEL: inactive
--
MOLECULE: O=C(NC(Cc1cc(=O)[nH]c2ccccc12)C(=O)O)c1ccc(Cl)cc1 (stereo unspecified)
ANSWER_LABEL: inactive

QUERY: Record request — test call for C[C@H](Cn1cnc2c(N)ncnc21)OCP(=O)(O)O
RESULT: inactive

QUERY: Identify the outcome logged in this assay for the molecule shown: O=C(CCc1ccc(O)cc1)c1c(O)cc(O)cc1O
RESULT: inactive

QUERY: For this molecule, state the assay outcome: CCCOc1ccc2nc(NC(=O)OC)[nH]c2c1
RESULT: active

QUERY: # outcome recorded in this test, key = CN(C)C(=O)[C@H](O)[C@H](Cc1ccccc1)NC(=O)c1cc2cc(Cl)ccc2[nH]1
RESULT: inactive

QUERY: Hey, what did the test say about S=c1nc[nH]c2nc[nH]c12 ?
RESULT: active

QUERY: Recorded test call requested for O=C(NCCO[N+](=O)[O-])c1cccnc1
RESULT: inactive

----------
EXPERIMENT: NCATS anti-infectives library activity on HEK293 viability as a counter-qHTS vs the C. elegans viability qHTS (AID 1745854);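 further: HEK293 cells exposed to compounds for 24 hr before the viability read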
RECORDED_CONDITIONS: HEK293 viability counter-screen; series mostly up to 41.8 µM
Inconclusive results are not listed. Calls of active or inactive are those of the source. Calls come from the whole dose curve; as a rule, active = well fitted cell-killing curve with a large enough effect; inconclusive = small, poorly fitted or top-dose-only effect; inactive = flat fitted curve, though single readings scatter.

STRUCTURE_NOTATION: Oc1ccc(OCc2ccccc2)cc1
outcome: inactive
//
STRUCTURE_NOTATION: N=C(N)c1ccc2cc(OC(=O)c3ccc(N=C(N)N)cc3)ccc2c1
outcome: inactive
//
STRUCTURE_NOTATION: N=C(N=C(N)N)N1CCOCC1
outcome: inactive

----------
TEST_TARGET: Cytochrome P450 2D6 (Homo sapiens)
EXPERIMENT: qHTS Assay for Inhibitors and Substrates of Cytochrome P450 2D6 (AID 891); further: nearly all actives have a fitted effect of over 60% in size; further: potency means the concentration at half of the fitted maximal effect
RECORDED_CONDITIONS: recombinant CYP2D6, luciferin-ME EGE luminescence; series mostly up to 57.1 µM
Inconclusive results are not listed. The source made the active and inactive calls. Calls come from the whole dose curve; as a rule, active = well fitted inhibition curve with a large enough effect; inconclusive = small, poorly fitted or top-dose-only effect; inactive = no such curve, though single readings can be large or run the other way.
METRIC_NAME: Potency

STRUCTURE_NOTATION: CC1(C)C(=O)N(CCN2CCC(C(=O)c3ccc(F)cc3)CC2)c2ccccc21
MEASURED: 1.26 µM (active)

STRUCTURE_NOTATION: O=C1NC(=O)C(c2ccccc2[N+](=O)[O-])=C1Nc1ccc(O)c(Cl)c1
MEASURED: inactive

STRUCTURE_NOTATION: CN1CCC(=C2c3ccccc3CCc3sccc32)CC1
MEASURED: 1.26 µM (active)

STRUCTURE_NOTATION: NC(=NCc1ccccc1)NC(=O)c1nc(Cl)c(N)nc1N
MEASURED: 5.01 µM (active)

QUERY: Please look up its Potency: O=c1c(O)c(-c2cc(O)c(O)c(O)c2)oc2cc(O)cc(O)c12
RESULT: inactive

QUERY: Entry C[C@H](Cc1ccc(O)c(O)c1)[C@@H](C)Cc1ccc(O)c(O)c1 has what Potency?
RESULT: 25.1 µM (active)

QUERY: // Potency lookup, key: O=C(O)c1cccnc1Nc1cccc(C(F)(F)F)c1
RESULT: inactive

QUERY: Look up Potency for this molecule: O=c1c(O)c(-c2ccc(O)cc2O)oc2cc(O)cc(O)c12
RESULT: inactive

----------
Test system: C2A
EXPERIMENT: qHTS profiling for inhibitors of Plasmodium falciparum proliferation (AID 504749); further: nearly all actives have a fitted effect of over 60% in size
RECORDED_CONDITIONS: P. falciparum in erythrocytes, SYBR Green DNA, 72 h; series mostly up to 28.7 µM
Inconclusive results are not listed. Active and inactive are the calls of the source. Calls follow the shape of the dose curve; as a rule, active = well fitted inhibition curve with a large enough effect; inconclusive = small, poorly fitted or top-dose-only effect; inactive = flat fitted curve, though single readings scatter.
Pick from Y (active), N (inactive) when you respond.

Use the examples below as a reference point.
STRUCTURE_NOTATION: O=c1oc2cc(O)ccc2s1
ANSWER_LABEL: N

STRUCTURE_NOTATION: CS(=O)(=O)OCCCCOS(C)(=O)=O
ANSWER_LABEL: N

STRUCTURE_NOTATION: Cc1cc2c(s1)Nc1ccccc1N=C2N1CCN(C)CC1
ANSWER_LABEL: N

QUERY: Recorded call for O=C(O)c1cccnc1Nc1cccc(C(F)(F)F)c1 ?
RESULT: N

QUERY: Test call for this compound, please: Cc1cc(=O)c2c(O)c3c(O)cc(=O)c4c3c3c(cc(O)c1c23)C(C)(C)C=4O
RESULT: Y

QUERY: Could you check what this test reported for CCCCCCCCOc1ccccc1C(=O)Nc1ccc(C(=O)OCC[N+](C)(CC)CC)cc1 ?
RESULT: Y
